Data provenance is patent EP4660185A1.

target: human sodium channels Nav 1.8 (Homo sapiens); assay: Automated whole-cell voltage-clamp (ScreenPatch 384P) sodium current block, Nav 1.8; details: CHO cells stably expressing human Nav 1.8; holding -100 mV, inactivation step -40 mV for 8 seconds, test step 10 mV (TP1A); exposure at least five minutes, room temperature; mean where tested in two or more assays; read-out: Nav1.8 IC50
Sequence (Q9Y5Y9 whole entry): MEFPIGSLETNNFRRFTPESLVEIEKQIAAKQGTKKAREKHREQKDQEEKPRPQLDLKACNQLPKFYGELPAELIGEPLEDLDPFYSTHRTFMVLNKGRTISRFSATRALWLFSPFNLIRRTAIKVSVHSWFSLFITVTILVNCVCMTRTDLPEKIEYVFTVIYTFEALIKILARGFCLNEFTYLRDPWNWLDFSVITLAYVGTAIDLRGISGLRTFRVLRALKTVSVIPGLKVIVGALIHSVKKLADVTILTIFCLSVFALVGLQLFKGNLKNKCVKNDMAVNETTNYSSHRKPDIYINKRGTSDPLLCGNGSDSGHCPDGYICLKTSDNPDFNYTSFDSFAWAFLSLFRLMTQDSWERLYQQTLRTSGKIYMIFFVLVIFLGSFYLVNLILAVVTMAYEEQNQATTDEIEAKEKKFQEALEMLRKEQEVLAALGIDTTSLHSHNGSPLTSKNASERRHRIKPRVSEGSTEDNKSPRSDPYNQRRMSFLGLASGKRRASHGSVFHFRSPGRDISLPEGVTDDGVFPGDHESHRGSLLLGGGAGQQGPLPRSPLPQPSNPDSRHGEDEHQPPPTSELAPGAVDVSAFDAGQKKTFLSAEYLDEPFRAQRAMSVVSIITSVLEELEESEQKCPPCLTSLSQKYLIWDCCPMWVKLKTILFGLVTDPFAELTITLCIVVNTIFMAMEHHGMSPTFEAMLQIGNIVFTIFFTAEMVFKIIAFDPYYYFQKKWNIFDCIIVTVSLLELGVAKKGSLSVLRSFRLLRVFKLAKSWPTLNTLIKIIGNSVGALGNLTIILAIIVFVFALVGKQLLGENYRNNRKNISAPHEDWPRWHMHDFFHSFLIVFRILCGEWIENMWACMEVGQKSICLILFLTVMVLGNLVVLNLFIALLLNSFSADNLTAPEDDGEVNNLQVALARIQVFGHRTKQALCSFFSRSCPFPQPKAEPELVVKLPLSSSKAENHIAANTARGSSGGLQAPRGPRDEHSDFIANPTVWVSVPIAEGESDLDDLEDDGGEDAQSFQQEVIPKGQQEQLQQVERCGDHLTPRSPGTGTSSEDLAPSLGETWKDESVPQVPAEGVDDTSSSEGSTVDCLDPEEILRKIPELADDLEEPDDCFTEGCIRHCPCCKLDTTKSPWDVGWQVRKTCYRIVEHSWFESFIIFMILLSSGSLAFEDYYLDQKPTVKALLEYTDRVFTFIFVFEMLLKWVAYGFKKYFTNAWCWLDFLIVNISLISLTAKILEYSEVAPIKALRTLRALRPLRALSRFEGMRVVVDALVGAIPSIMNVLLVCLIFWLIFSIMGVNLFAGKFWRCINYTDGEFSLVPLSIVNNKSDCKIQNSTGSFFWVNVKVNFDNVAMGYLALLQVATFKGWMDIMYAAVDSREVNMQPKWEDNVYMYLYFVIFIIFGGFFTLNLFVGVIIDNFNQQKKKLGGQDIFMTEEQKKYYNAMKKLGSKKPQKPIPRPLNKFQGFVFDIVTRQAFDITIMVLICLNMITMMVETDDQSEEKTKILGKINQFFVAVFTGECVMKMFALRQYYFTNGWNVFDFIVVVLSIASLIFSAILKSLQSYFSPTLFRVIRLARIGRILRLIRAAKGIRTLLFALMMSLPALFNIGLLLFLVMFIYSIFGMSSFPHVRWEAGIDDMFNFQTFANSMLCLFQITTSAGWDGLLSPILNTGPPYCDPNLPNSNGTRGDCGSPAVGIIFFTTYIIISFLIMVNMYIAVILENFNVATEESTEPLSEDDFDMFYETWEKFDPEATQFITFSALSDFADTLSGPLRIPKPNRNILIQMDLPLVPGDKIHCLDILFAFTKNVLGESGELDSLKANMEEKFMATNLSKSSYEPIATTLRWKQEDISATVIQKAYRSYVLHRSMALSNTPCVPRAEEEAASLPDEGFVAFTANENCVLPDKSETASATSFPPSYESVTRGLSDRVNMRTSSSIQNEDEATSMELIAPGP
pIC50: −log10 of the molar value.
Entries and their measured pIC50 follow.
MEASURED_METRIC: pIC50

>>> print(df.to_string())
                                   compound  measured_metric  value_reported
0  COc1cnc(F)c(CCNC(=O)c2cncc(-c3ccc(C(C)O)nc3)n2)c1 (stereo not shown)            pIC50          < 6.00
1  COc1cc(CCNC(=O)c2cncc(-c3ccc(OC(F)F)cc3)n2)cc(OC)c1            pIC50          > 6.30
2  CCOc1ccc(-c2cnnc(C(=O)NCCc3cc(OC)cnc3F)c2)cn1            pIC50          < 6.00
3  CCOc1ccc(-c2cncc(C(=O)NCCc3cc(OC)cnc3C)n2)cc1            pIC50          > 6.30

###

In this section we review reported IC50 values for a set of compounds.
biological target: human sodium channels Nav 1.7 (Homo sapiens); experiment: Automated whole-cell voltage-clamp (ScreenPatch 384P) sodium current block, Nav 1.7; conditions: CHO cells stably expressing human Nav 1.7; holding -100 mV, inactivation step -40 mV for 8 seconds, test step 0 mV (TP1A); exposure at least five minutes, room temperature; mean where tested in two or more assays; read-out: Nav1.7 IC50
Sequence (Q15858 whole entry): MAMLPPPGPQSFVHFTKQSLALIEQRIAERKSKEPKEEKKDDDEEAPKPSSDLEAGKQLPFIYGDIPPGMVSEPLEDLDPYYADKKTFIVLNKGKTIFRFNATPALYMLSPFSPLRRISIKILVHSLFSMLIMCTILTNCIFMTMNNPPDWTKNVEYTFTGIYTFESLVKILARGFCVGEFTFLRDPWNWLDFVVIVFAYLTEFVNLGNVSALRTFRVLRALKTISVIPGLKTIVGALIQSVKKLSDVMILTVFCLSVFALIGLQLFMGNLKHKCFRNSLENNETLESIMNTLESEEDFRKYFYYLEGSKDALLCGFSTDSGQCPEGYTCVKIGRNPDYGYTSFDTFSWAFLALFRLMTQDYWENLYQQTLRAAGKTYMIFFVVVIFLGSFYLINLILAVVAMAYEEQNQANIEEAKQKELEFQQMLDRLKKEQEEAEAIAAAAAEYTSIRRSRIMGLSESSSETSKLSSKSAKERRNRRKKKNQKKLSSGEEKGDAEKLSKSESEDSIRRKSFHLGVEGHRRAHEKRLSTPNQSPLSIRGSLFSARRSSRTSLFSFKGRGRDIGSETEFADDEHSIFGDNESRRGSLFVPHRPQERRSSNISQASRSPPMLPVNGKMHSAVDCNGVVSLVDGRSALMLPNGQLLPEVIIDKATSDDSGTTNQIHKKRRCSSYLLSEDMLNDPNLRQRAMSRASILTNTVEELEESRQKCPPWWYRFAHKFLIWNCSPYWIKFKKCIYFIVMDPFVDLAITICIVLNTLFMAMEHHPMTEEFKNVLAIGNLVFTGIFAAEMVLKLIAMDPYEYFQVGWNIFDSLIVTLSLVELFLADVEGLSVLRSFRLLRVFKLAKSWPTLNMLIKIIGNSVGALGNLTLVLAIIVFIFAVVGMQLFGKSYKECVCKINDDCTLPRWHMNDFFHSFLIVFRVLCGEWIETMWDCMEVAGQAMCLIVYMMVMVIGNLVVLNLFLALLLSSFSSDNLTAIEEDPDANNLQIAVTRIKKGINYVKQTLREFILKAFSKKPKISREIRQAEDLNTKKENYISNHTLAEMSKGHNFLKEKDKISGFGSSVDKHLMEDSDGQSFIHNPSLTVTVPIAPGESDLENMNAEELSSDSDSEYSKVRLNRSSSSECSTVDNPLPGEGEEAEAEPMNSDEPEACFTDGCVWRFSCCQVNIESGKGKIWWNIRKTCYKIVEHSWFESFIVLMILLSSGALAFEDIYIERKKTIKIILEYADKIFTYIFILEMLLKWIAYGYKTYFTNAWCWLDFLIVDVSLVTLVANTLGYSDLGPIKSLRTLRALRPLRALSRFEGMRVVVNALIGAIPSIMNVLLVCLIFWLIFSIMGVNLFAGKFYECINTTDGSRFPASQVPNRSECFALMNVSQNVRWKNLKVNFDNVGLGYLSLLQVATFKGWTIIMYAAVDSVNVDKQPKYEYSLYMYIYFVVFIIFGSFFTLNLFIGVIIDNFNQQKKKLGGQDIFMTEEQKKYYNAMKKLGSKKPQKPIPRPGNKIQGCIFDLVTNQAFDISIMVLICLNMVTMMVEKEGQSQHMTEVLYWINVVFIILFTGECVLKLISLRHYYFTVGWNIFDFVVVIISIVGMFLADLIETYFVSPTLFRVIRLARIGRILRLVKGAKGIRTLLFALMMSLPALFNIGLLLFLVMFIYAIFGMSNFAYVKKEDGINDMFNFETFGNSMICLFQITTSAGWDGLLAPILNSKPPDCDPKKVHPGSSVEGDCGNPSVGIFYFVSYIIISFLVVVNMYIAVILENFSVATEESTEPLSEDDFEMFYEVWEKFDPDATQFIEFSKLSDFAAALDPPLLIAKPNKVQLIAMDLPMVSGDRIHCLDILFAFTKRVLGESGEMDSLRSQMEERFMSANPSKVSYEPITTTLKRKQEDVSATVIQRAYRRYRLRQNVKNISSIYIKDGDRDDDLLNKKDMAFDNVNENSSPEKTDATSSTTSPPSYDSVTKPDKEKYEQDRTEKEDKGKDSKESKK
MEASURED_METRIC: IC50

                               smiles_string  value_reported
 0  CCOc1ccc(-c2cncc(C(=O)NC[C@@H](N)c3cc(OC)cc(OC)c3)n2)cc1        < 0.5 µM
 1  CCOc1cc(C)c(-c2cncc(C(=O)NCCc3cc(OC)cc(OC)c3)n2)cn1          > 1 µM
 2  CCOc1ccc(-c2nccc(C(=O)NCCc3cc(OC)cnc3F)n2)cc1          > 1 µM
 3  CCOc1ccc(-c2cncc(C(=O)NCCc3cc(OC)cc(OC)c3)n2)cn1          > 1 µM
 4  CCOc1ccc(-c2cncc(C(=O)Nc3cc4c(OC)cccc4[nH]3)n2)cc1     0.5 to 1 µM
 5  CCOc1ccc(-c2cc(C(=O)NCCc3cc(OC)cnc3F)cnn2)cc1          > 1 µM
 6  CCOc1ccc(-c2cncc(C(=O)N[C@@H]3CCc4c(OC)ccc(F)c4C3)n2)cn1     0.5 to 1 µM
 7  CCOc1ccc(-c2cncc(C(=O)NCc3ncc4ccc(OC)cn34)n2)cn1          > 1 µM
 8  CCOc1ccc(-c2cncc(C(=O)Nc3nc4c(F)ccc(OC)c4s3)n2)cn1          > 1 µM
 9  CCOc1ccc(-c2cncc(C(=O)NCCc3cc(OC)ccc3F)n2)cc1     0.5 to 1 µM
10  CCOc1ccc(-c2cncc(C(=O)NCCc3cc(OC)cc(OC)c3)n2)c(F)c1          > 1 µM
